- tested-target: rat TAAR1 (Rattus norvegicus (Rat), UniProt Q923Y9)
- Sequence (Q923Y9 whole entry): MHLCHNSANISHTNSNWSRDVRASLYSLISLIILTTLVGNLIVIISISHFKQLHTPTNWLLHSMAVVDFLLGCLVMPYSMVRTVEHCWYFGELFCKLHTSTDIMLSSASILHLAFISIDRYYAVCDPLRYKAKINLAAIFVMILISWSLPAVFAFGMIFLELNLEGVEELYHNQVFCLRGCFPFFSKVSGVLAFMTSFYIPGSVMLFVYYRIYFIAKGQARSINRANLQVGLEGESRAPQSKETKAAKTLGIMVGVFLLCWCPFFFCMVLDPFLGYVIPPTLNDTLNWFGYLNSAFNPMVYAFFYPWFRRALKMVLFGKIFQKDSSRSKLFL
- test-details: Radioligand binding assay on rat TAAR1
- measurement-setup: rat TAAR1, HEK-293 membranes; second value of mouse/rat cell
Where a name gives a salt, the structure may show the parent alone.
test-readout: Ki (µM)

- compound: "O=C(Nc1ccc(C2CCNC2)cc1)c1cnn(-c2ccccc2)n1 (racemic)"
  test-readout: "Ki"
  u: "µM"
  obs-value: 0.001
- compound: "O=C(Nc1ccc([C@H]2CNCCO2)cc1)c1cn(-c2ccc(Br)cn2)nn1 [Example 36, hydrochloride]"
  test-readout: "Ki"
  u: "µM"
  obs-value: 0.03

1. O=C(Nc1ccc([C@H]2CNCCO2)cc1)c1cnn(-c2ccc(C(F)(F)F)cc2)n1 [Example 10, hydrochloride]
2. CCOc1cccc(-n2ncc(C(=O)Nc3ccc([C@H]4CNCCO4)cc3)n2)c1 [Example 31, hydrochloride]
Lower value for measured Ki? Options: 1 , 2 Indicate your choice by writing its label.
1
(1: 0.0002 µM, 2: 0.107 µM)

----------
The entries below are paired with their reported Ki.
- tested-target: UniProtKB Q923Y9
- test-details: Radioligand binding assay on rat TAAR1
- measurement-setup: rat TAAR1, HEK-293 membranes; second value of mouse/rat cell
Counter-ions that a name gives are not always drawn.
Respond numerically; units are µM and should not be typed.

Guide cases for Ki, answers given:
- compound: "Cc1cccc(-n2ncc(C(=O)Nc3ccc([C@H]4CNCCO4)cc3)n2)c1 [Example 23, hydrochloride]"
  Ki / µM: 0.0005
- compound: "O=C(Nc1ccc([C@H]2CNCCO2)cc1)c1cnn(-c2ccccc2)n1 [Example 1, hydrochloride]"
  Ki / µM: 0.0013
- compound: "COc1ccc(-n2cc(C(=O)Nc3ccc([C@H]4CNCCO4)cc3)nn2)cc1 [Example 19, hydrochloride]"
  Ki / µM: 0.0388

Alright, here's another compound for you.
Given item O=C(Nc1ccc([C@H]2CNCCO2)cc1)c1cnn(-c2ccc(OC(F)(F)F)cc2)n1 [Example 15, hydrochloride] , the value recorded as its Ki is 0.0001

----------
- tested-target: mouse TAAR1 (Mus musculus (Mouse), UniProt Q923Y8)
- Sequence (Q923Y8 whole entry): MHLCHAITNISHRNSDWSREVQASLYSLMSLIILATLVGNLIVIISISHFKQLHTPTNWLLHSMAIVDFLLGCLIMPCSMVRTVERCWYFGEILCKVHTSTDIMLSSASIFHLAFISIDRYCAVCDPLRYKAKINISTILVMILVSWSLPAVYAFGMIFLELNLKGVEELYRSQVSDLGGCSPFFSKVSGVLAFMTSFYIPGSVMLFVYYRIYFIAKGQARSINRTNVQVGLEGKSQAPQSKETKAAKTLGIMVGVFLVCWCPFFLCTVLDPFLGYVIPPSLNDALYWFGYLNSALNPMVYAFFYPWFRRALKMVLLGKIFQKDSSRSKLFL
- test-details: Radioligand binding assay on mouse TAAR1
- measurement-setup: mouse TAAR1, HEK-293 membranes; first value of mouse/rat cell
Where a name gives a salt, the structure may show the parent alone.
test-readout: Ki (µM)

Guide cases for Ki, answers given:
- compound: "O=C(Nc1ccc([C@H]2CNCCO2)cc1)c1cn(-c2cccc(OC(F)(F)F)c2)nn1 [Example 27, hydrochloride]"
  u: "µM"
  obs-value: 0.0068
- compound: "O=C(Nc1ccc([C@@H]2CNCCO2)cc1)c1cnn(-c2ccccc2)n1 [Example 8, hydrochloride]"
  u: "µM"
  obs-value: 0.0014
- compound: "Cc1nn(-c2ccccc2)nc1C(=O)Nc1ccc([C@H]2CNCCO2)cc1 [Example 2, hydrochloride]"
  u: "µM"
  obs-value: 0.0015
- compound: "O=C(Nc1ccc([C@H]2CNCCO2)cc1)c1cnn(-c2ccc(OC(F)(F)F)cc2)n1 [Example 15, hydrochloride]"
  u: "µM"
  obs-value: 0.0002
- compound: "O=C(Nc1ccc([C@H]2CNCCO2)cc1)c1cnn(-c2cccc(C(F)(F)F)c2)n1 [Example 13, hydrochloride]"
  u: "µM"
  obs-value: 0.0003

P. O=C(Nc1ccc([C@H]2CNCCO2)cc1)c1cn(-c2cccc(OC(F)F)c2)nn1 [Example 29, hydrochloride]
Q. O=C(Nc1ccc([C@H]2CNCCO2)cc1)c1cnn(-c2ccc(C(F)(F)F)cc2)n1 [Example 10, hydrochloride]
Larger number for Ki: P , or Q ? Indicate your choice by writing its label.
P
(P: 0.0009 µM, Q: 0.0004 µM)

----------
- tested-target: mouse TAAR1 (Mus musculus (Mouse))
- test-details: Radioligand binding assay on mouse TAAR1
- measurement-setup: mouse TAAR1, HEK-293 membranes; first value of mouse/rat cell
Structures can show the parent of a compound that is named as a salt.
test-readout: Ki (µM)
Respond numerically; units are µM and should not be typed.

Guide cases for Ki, answers given:
- compound: "O=C(Nc1ccc(C2CCNC2)cc1)c1cnn(-c2ccccc2)n1 (racemic)"
  obs-value: 0.0032
- compound: "CCOc1cccc(-n2cc(C(=O)Nc3ccc([C@H]4CNCCO4)cc3)nn2)c1 [Example 26, hydrochloride]"
  obs-value: 0.0011

Alright, here's another compound for you.
Given item O=C(Nc1ccc([C@H]2CNCCO2)cc1)c1cnn(-c2ccccc2)n1 [Example 1, hydrochloride] , the value recorded as its Ki is 0.0012
